Molecular target: T1, Peptide-10 (cysteine pairing not given here; also: biotinylated (site not given here))
T1 peptide: IDFCAIYQWPVCRS
Assay: ELISA, Fab on captured biotin-peptide
Where no end group is shown, it is not given here.
PARAMETER: pEC50
Notebook: values listed as pEC50 are -log10 of the concentration (mol/L).

# BINDER, RECORDED_RESULT
measured = [
    ("TBD-22 (HC D109A) (Fab, V domains shown, Fab; also called HC D109A mutant) VH: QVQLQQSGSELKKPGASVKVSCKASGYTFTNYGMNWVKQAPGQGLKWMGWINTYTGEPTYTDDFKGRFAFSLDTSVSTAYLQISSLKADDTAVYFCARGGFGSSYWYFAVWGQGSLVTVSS VL: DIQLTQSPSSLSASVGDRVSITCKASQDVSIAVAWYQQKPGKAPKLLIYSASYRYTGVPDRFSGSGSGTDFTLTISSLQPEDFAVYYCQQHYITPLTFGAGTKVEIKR", 9.00),
    ("TBD-17 (HC S104A) (Fab, V domains shown, Fab; also called HC S104A mutant) VH: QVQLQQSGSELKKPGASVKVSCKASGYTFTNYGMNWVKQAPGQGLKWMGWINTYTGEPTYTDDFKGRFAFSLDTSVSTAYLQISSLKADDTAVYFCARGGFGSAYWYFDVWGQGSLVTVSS VL: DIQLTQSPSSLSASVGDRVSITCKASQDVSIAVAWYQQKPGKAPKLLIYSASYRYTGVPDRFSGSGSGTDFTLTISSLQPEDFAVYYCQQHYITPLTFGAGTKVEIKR", 8.19),
]

Switching to the query record.
Inquiry: Return reported pEC50; argument: TBD-11 (HC R98A) (Fab, V domains shown, Fab; also called HC R98A mutant) VH: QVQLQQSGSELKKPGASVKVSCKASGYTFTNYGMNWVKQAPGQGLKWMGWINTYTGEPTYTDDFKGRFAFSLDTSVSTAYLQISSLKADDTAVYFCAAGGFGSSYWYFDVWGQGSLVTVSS VL: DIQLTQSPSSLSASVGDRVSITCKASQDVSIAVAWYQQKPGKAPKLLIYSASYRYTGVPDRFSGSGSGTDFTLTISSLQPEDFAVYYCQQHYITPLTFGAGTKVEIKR
Reply text: 6.57

The measured values listed here are drawn from patent US20230357429A1.
